- assayOverview: Acute toxicity (LD50) in mice
- measurementSetup: mouse, in vivo, intravenous administration, read-out: acute toxicity (LD50), intravenous
endpointName: LD50 (mg/kg)
Report only the number, with the unit mg/kg understood.

Incoming: Form field: reported LD50 of `Cc1[nH]cnc1Cn1ccc2ccc3ccccc3c2c1=O.Cl`
Outgoing: 94
